assay notes: MTT assay
Type: cell-based, human
condition info: human, MCF-7 breast cancer cells, % Viability, MCF-7, 100 μM
Give viability at 24 h, 100 µM for every item shown.
Give the quantity in %, number only.

Record O=C(Nc1ccccc1I)c1ccc2ncccc2c1 [Compound 4h, N-(2-iodophenyl)quinoline-6-carboxamide] . Reported viability at 24 h, 100 µM: 50.3

Record Cc1ccc(F)cc1NC(=O)c1ccc2ncccc2c1 [Compound 4l] . Reported viability at 24 h, 100 µM: 60.5

Record O=C(NCc1ccc(Cl)cc1)c1ccc2ncccc2c1 [Compound 4a] . Reported viability at 24 h, 100 µM: 62.7
